# assayed_target: Matrilysin (Homo sapiens)
# procedure_text: In vitro inhibition of MMP-7 at 2 uM.
value_kind: inhibition (%)

compound: CC(NC(=O)OCc1ccccc1)P(=O)(O)CC(COCc1ccccc1)C(=O)NC(Cc1c[nH]c2ccccc12)C(N)=O (stereo not given)
value_kind: inhibition
quantitative_result: 1

compound: CC(CP(=O)(O)C(Cc1ccccc1)NC(=O)OCc1ccccc1)C(=O)NC(Cc1c[nH]c2ccccc12)C(N)=O (stereo not given)
value_kind: inhibition
quantitative_result: 0

compound: CC(=O)NC(Cc1ccccc1)P(=O)(O)CC(CCCc1ccccc1)C(=O)NC(Cc1c[nH]c2ccccc12)C(N)=O (stereo not given)
value_kind: inhibition
quantitative_result: 28

a. CCCCCCCC(CP(=O)(O)C(Cc1ccccc1)NC(=O)OCc1ccccc1)C(=O)NC(Cc1c[nH]c2ccccc12)C(N)=O (stereo not given)
b. CC(NC(=O)C(CCCc1ccccc1)CP(=O)(O)C(Cc1ccccc1)NC(=O)OCc1ccccc1)C(N)=O (stereo not given)
Of the two listed items, a and b , which carries the larger inhibition figure? // output: label of the selected item
a
(a: 4%, b: 0%)

---

# assayed_target: Neutrophil collagenase (Homo sapiens)
# Sequence (P22894 whole entry): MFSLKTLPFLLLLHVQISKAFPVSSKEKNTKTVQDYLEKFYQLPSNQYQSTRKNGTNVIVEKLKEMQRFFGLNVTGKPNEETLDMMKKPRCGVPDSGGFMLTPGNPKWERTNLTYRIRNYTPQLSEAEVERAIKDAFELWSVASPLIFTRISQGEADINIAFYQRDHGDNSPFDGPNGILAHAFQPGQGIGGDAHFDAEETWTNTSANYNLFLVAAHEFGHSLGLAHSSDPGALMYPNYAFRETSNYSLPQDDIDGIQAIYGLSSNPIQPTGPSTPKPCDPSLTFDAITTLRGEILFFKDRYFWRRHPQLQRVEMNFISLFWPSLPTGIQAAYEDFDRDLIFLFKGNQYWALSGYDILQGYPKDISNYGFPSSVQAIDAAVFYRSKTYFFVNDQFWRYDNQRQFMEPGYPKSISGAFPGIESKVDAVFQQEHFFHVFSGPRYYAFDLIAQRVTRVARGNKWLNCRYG
# procedure_text: Inhibition of matrix metalloprotease-8
value_kind: Ki (nM)

// below: answered compounds
compound: CCCCCCCC(CP(=O)(O)C(Cc1ccccc1)NC(=O)OCc1ccccc1)C(=O)NC(Cc1c[nH]c2ccccc12)C(N)=O (stereo not drawn)
value_units: nM
Ki: 6

compound: NC(=O)C(Cc1c[nH]c2ccccc12)NC(=O)C(CCCc1ccccc1)CP(=O)(O)C(Cc1ccccc1)NC(=O)c1cc2cc(Cl)cc(Cl)c2oc1=O (stereo not drawn)
value_units: nM
Ki: 17

compound: CC(C)CC(NC(=O)OCc1ccccc1)C(=O)NC(Cc1ccccc1)P(=O)(O)CC(CCCc1ccccc1)C(=O)NC(Cc1c[nH]c2ccccc12)C(N)=O (stereo not drawn)
value_units: nM
Ki: 7

compound: NC(=O)C(Cc1c[nH]c2ccccc12)NC(=O)C(Cc1ccc2ccccc2c1)CP(=O)(O)C(Cc1ccccc1)NC(=O)OCc1ccccc1 (stereo not drawn)
value_units: nM
Ki: 230

compound: CC(C)CC(CP(=O)(O)C(Cc1ccccc1)NC(=O)OCc1ccccc1)C(=O)NC(Cc1c[nH]c2ccccc12)C(N)=O (stereo not drawn)
value_units: nM
Ki: 40

compound: NC(=O)C(Cc1c[nH]c2ccccc12)NC(=O)C(CCCc1ccccc1)CP(=O)(O)C(Cc1ccccc1)NC(=O)CNc1cc(Cl)ccc1O (stereo not drawn)
value_units: nM
Ki: 7.5

compound: NC(=O)[C@@H](Cc1c[nH]c2ccccc12)NC(=O)C(CCCc1ccccc1)CP(=O)(O)C(Cc1ccccc1)NC(=O)OCc1ccccc1 (stereo partly drawn)
value_units: nM
Ki: 2.5

compound: NC(=O)C(Cc1c[nH]c2ccccc12)NC(=O)C(CCCc1ccccc1)CP(=O)(O)C(Cc1ccccc1)NC(=O)CNc1ccccc1 (stereo not drawn)
value_units: nM
Ki: 4.5

compound: NC(=O)C(Cc1c[nH]c2ccccc12)NC(=O)C(CCCc1ccccc1)CP(=O)(O)C(Cc1ccccc1)NC(=O)c1ccc2ccccc2n1 (stereo not drawn)
value_units: nM
Ki: 5

a. NC(=O)C(Cc1c[nH]c2ccccc12)NC(=O)C(CCCCc1ccccc1)CP(=O)(O)C(Cc1ccccc1)NC(=O)OCc1ccccc1 (stereo not drawn)
b. COc1ccc(CSCC(CP(=O)(O)C(Cc2ccccc2)NC(=O)OCc2ccccc2)C(=O)NC(Cc2c[nH]c3ccccc23)C(N)=O)cc1 (stereo not drawn)
c. NC(=O)C(Cc1c[nH]c2ccccc12)NC(=O)C(CCc1ccc2ccccc2c1)CP(=O)(O)C(Cc1ccccc1)NC(=O)OCc1ccccc1 (stereo not drawn)
Output the entries ranked by Ki from maximum down to minimum. In your reply, arrange the labels in the requested order.
c, a, b
(c: 34 nM, a: 4.3 nM, b: 0.7 nM)

---

# assayed_target: Interstitial collagenase (Homo sapiens)
# procedure_text: In vitro inhibition of MMP-1 at 2 uM.
value_kind: inhibition (%)

compound: NC(=O)C(Cc1c[nH]c2ccccc12)NC(=O)C(CCCc1ccccc1)CP(=O)(O)C(Cc1ccccc1)NC(=O)c1cc2cc(Cl)cc(Cl)c2oc1=O (stereo not drawn)
value_units: %
inhibition: 62

compound: CCCCCCCC(CP(=O)(O)C(Cc1ccccc1)NC(=O)OCc1ccccc1)C(=O)NC(Cc1c[nH]c2ccccc12)C(N)=O (stereo not drawn)
value_units: %
inhibition: 27

compound: CC(=O)NC(Cc1ccccc1)P(=O)(O)CC(CCCc1ccccc1)C(=O)NC(Cc1c[nH]c2ccccc12)C(N)=O (stereo not drawn)
value_units: %
inhibition: 43

compound: NC(=O)C(Cc1c[nH]c2ccccc12)NC(=O)C(CCc1ccccc1)CP(=O)(O)C(Cc1ccccc1)NC(=O)OCc1ccccc1 (stereo not drawn)
value_units: %
inhibition: 10

I. NC(=O)C(Cc1c[nH]c2ccccc12)NC(=O)C(CCCc1ccccc1)CP(=O)(O)C(Cc1ccccc1)NC(=O)COCc1ccccc1 (stereo not drawn)
II. CC(CP(=O)(O)C(Cc1ccccc1)NC(=O)OCc1ccccc1)C(=O)NC(Cc1c[nH]c2ccccc12)C(N)=O (stereo not drawn)
III. CC(NC(=O)C(CCCc1ccccc1)CP(=O)(O)C(Cc1ccccc1)NC(=O)OCc1ccccc1)C(N)=O (stereo not drawn)
IV. NC(=O)[C@H](Cc1c[nH]c2ccccc12)NC(=O)C(CCCc1ccccc1)CP(=O)(O)C(Cc1ccccc1)NC(=O)OCc1ccccc1 (stereo partly drawn)
Ascending by inhibition, please: list the compounds accordingly. Your answer should be the labels, listed in the requested order.
IV, III, II, I

Provenance of the data: ChEMBL document CHEMBL1132299
